target_under_test: HLA A*2402 (Homo sapiens, UniProt P04439, D101N/D140Y/D185E/E176V/E190D/F33S/G103R/G107R/I119L/I121M/I306V/K335N/L105A/L180Q/L300P/N151K/N90K/Q86E/Q94H/R106L/R138H/R89G/T104I/T345S/V100E/W191G/Y123F)
test_summary: HLA class I binding assay (cell-free competition, fluorescence polarization)
Where a SMILES comes first, the peptide text is derived from it.
observation_type: IC50 (µM)
A number alone suffices; assume µM.

Query: I'd like to know its IC50. The compound in question is NCCCC[C@H](NC(=O)[C@H](Cc1ccc(O)cc1)NC(=O)[C@@H](N)CC(N)=O)C(=O)N[C@@H](CCC(N)=O)C(=O)N[C@@H](CC(N)=O)C(=O)N[C@@H](CC(N)=O)C(=O)N[C@@H](Cc1ccccc1)C(=O)N1CCC[C@H]1C(=O)N[C@@H](Cc1ccccc1)C(=O)O (H-NYKQNNFPF-OH)
Response: 9.49

Query: # query: IC50 of entry CC[C@H](C)[C@H](N)C(=O)N[C@@H](Cc1ccc(O)cc1)C(=O)NCC(=O)N[C@@H](CCCCN)C(=O)NCC(=O)NCC(=O)N[C@@H](Cc1ccccc1)C(=O)N[C@@H](CCC(N)=O)C(=O)N[C@@H](Cc1ccccc1)C(=O)O (H-IYGKGGFQF-OH)
Response: 0.163
